- testSystem: hCLEC12A-His fusion protein (human) (UniProt Q5QGZ9)
- Sequence (Q5QGZ9 65-265 limits assumed): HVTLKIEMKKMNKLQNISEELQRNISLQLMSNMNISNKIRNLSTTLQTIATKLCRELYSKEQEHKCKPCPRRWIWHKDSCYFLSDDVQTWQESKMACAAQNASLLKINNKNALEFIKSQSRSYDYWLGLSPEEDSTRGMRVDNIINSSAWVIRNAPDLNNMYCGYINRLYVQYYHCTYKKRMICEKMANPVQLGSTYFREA
- measurementProtocol: SPR screening, semi-purified protein
Consider the following binders and their measured koff readings.
reportedProperty: koff (s⁻¹)

- AB0189 (bispecific antibody, part only; not given: Fc, unrelated binder arm, linkers, not shown: another chain or arm of the molecule; a dimerising Fc or GST; small tags and cut ends) scFv: DIKMTQSPSSLSASVGDRVTITCKASQDIYNYLSWFQQKPGKAPKPLIYRANILVSGVPSRFSGSGSGQDYTLTISSLQPEDIATYYCLQFDAFPFTFGCGTKLEIKGGGGSGGGGSGGGGSGGGGSEVQLVESGGGVVQPGGSLRLSCAASGFTFNAFGMHWVRQAPGKCLEWVAFISSGSTSIYYANTVKGRFTISRDNSKNTLYLQMNSLRAEDTAVYYCARDGYPTGGAMDYWGQGTSVTVSS: 0.00127
- AB0188 (bispecific antibody, part only; not given: Fc, unrelated binder arm, linkers, not shown: another chain or arm of the molecule; a dimerising Fc or GST; small tags and cut ends) scFv: DIKMTQSPSSLSASVGDRVTITCKASQDIYNYLSWFQQKPGKAPKPLIYRANILVSGVPSRFSGSGSGQDYTLTISSLQPEDIATYYCLQFDAFPFTFGCGTKLEIKGGGGSGGGGSGGGGSGGGGSEVQLVESGGGVVQPGGSLRLSCAASGFTFNSFGMHWVRQAPGKCLEWVAFISSGSTSIYYANTVKGRFTISRDNSKNTLYLQMNSLRAEDTAVYYCARDGYPTGGAMDYWGQGTSVTVSS: 0.000901
- F3′-1292 (bispecific antibody, part only; not given: Fc and unrelated binding arm, not shown: another chain or arm of the molecule; a dimerising Fc or GST) scFv: QLQLQESGPGLVKPSETLSLTCTVSGFSLTNYGLHWIRQPPGKCLEWIGVIWSGGKTDYNPSLKSRVTISKDTSKNQFSLKLSSVQANDTAVYYCAKYDYDDSLDYWGQGTLVTVSSGGGGSGGGGSGGGGSGGGGSDIQMTQSPSSLSASVGDRVTITCHASQNINFWLSWYQQKPGKIPKLLIYEASNLHTGVPSRFSGSGSGTRFTLTISSLQPEDIATYYCQQSHSYPLTFGCGTKLEIK: 0.0013
- F3′-1304 (bispecific antibody, part only; not given: Fc and unrelated binding arm, not shown: another chain or arm of the molecule; a dimerising Fc or GST; small tags and cut ends) scFv: DIQMTQSPSSLSASVGDRVTITCHASQNINFWLSWYQQKPGKIPKLLIYEASNLHTGVPSRFSGSGSGTRFTLTISSLQPEDIATYYCQQSHSYPLTFGCGTKLEIKGGGGSGGGGSGGGGSGGGGSQLQLQESGPGLVKPSETLSLTCTVSGFSLTNYGLHWIRQPPGKCLEWIGVIWSGGKTDYNPSLKSRVTISKDTSKNQFSLKLSSVQAADTAVYYCAKYDYDDSLDYWGQGTLVTVSS: 0.0013

Recorded values, source patent US20230220084A1.
